Molecular target: MHC-II DRB1*07:01 (Homo sapiens, UniProt P01903+P01911, A100R/A102G/A103Q/D57E/D86V/E43K/F76Y/K127E/L162R/M171V/P40G/Q125H/Q99D/R33Q/R42Y/R54Q/S133A/S66F/T210M/V115G/Y107V/Y59L/Y89S)
Test: Cell-free REVEAL class II stability assay
Settings: half-life of peptide-MHC-II complex (h, capped at 120) x Binding Score / 100, conformational ELISA

entry sequence	Stability Index
PPLLTRYLRIHPQSW [synthetic wild type FVIII 15 mer peptide]	8.4
QKFSSLYISQFIIMY [synthetic wild type FVIII 15 mer peptide]	0.0
RIHPQSWVHQIALRM [synthetic wild type FVIII 15 mer peptide]	2.6
KMVYEDTLTLFPFSG [synthetic wild type FVIII 15 mer peptide]	0.0
ASEGAEYDDQTSQRE [synthetic wild type FVIII 15 mer peptide]	0.0
